# Test system: cocklebur
# test name: Test B pre/postemergence cocklebur
# Format: in vivo, Xanthium strumarium
# measurement setup: Postemergence, Rate 125 g/ha; scale of 0 to 10 where 0 is no effect and 10 is complete control
I'd be grateful if you could share measured Cocklebur plant response rating for these entries.
Give bare numbers.

{"test smiles": "CC(C)N(C(=O)n1oc(=O)n([C@H](C)c2ccccc2)c1=O)c1ccc(Cl)cc1", "measured on": "cocklebur", "Cocklebur plant response rating": 0}

Hello, I would appreciate it if you could give Cocklebur plant response rating for each entry below.
1. CC(C)N(C(=O)n1oc(=O)n(-c2cnn(C)c2)c1=O)c1ccc(F)cc1
2. C=C(C)Cn1c(=O)on(C(=O)N(c2ccc(F)cc2)C(C)C)c1=O
3. CC(C)N(C(=O)n1oc(=O)n(-c2cnn(C)c2Cl)c1=O)c1ccccc1

Ans.
[0, 0, 2]

Recorded values, source patent US6737383B1.
